- methodNotes: Density of the pure solvent
- Assay type: physicochemical
Property: density; scope: individual compounds
reportedProperty: density (g/mL)

{"columns": ["compound", "reportedProperty", "reading"],
 "data": [
  ["CCCCCl [chlorobutane]", "density", 0.886],
  ["CCCCCCCCOC(=O)c1ccccc1C(=O)OCCCCCCCC [Dioctyl phthlate]", "density", 0.985]
]}

###

- methodNotes: Density of the pure solvent
- Type: physicochemical
- measurementParameters: pure solvent

{"columns": ["molecule", "readoutUnit", "density"],
 "data": [
  ["CCCCC(CC)COC(=O)CCCCCCCCC(=O)OCC(CC)CCCC (centres unmarked) [bis(2-ethylhexyl)sebacate]", "g/mL", 0.914],
  ["CC(C)CCCC(C)CCO (centres unmarked)", "g/mL", 0.828],
  ["CC(C)=CCCC(C)=CCCC(C)=CCO", "g/mL", 0.89],
  ["CCCCCCCCC(CO)CCCCCC (centres unmarked)", "g/mL", 0.836],
  ["CCCCCCC(CO)CCCC (centres unmarked)", "g/mL", 0.833]
]}
